measure_name: logP

Use the examples below as a reference point.
Please look at this compound and report its logP: CC(C)S(=O)(=O)n1c(N)nc2ccc(/C(=N\O)c3ccccc3)cc21
3.1

Please look at this compound and report its logP: CCN(CC)CCNc1ccc(CO)c2sc3ccccc3c(=O)c12
2.7

Please look at this compound and report its logP: CCC(=O)O[C@]1(c2ccccc2)CCN(C)C[C@H]1CC
3.61

Please look at this compound and report its logP: CC(=O)[C@H]1CC[C@H]2[C@@H]3C[C@H](C)C4=CC(=O)CC[C@]4(C)[C@H]3C(=O)C[C@]12C
2.75

Consider now this further compound.
Please look at this compound and report its logP: CC(C)/N=C(N)/N=C(\N)Nc1ccc(Cl)cc1
2.53

----------
test: method code SF, from Craig, N. (1990). Drug Compendium. In Hansch, C (Ed.), Comprehensive Medicinal Chemistry. Pergamon Press.
measure_name: logP
Give your answer as a number; write no unit.

Please look at this compound and report its logP: N=C(N)N1CCc2ccccc2C1
0.75

Please look at this compound and report its logP: Cc1ncc([N+](=O)[O-])n1CCOC(N)=O
-0.29

Please look at this compound and report its logP: CSc1ccc(OCc2ncc([N+](=O)[O-])n2C)cc1
2.5

Please look at this compound and report its logP: NCc1ccccc1Sc1ccccc1CO
2.39

Please look at this compound and report its logP: O=[N+]([O-])c1cnc(-c2ccc(F)cc2)n1CCO
1.33

----------
experiment: method code SF, from Craig, N. (1990). Drug Compendium. In Hansch, C (Ed.), Comprehensive Medicinal Chemistry. Pergamon Press.; conditions: pH 7.4
measure_name: logD

Please look at this molecule and report its logD: CCOC(=O)C=C1SC(N2CCCCC2)C(=O)N1C (stereo unspecified)
2.3

----------
test: method code SF, from Craig, N. (1990). Drug Compendium. In Hansch, C (Ed.), Comprehensive Medicinal Chemistry. Pergamon Press.
measure_name: logP
Give your answer as a number; write no unit.

Use the examples below as a reference point.
Please look at this molecule and report its logP: CCC(OC(C)=O)C(CC(C)N(C)C)(c1ccccc1)c1ccccc1 (stereo not drawn)
4.27

Please look at this molecule and report its logP: Cc1ccccc1-n1c(C)nc2ccccc2c1=O
2.5

Continuing:
Please look at this molecule and report its logP: CN(C)CCN1C(=O)c2ccccc2Nc2cc(Cl)ccc21
3.73

----------
experiment: method code SF, from Craig, N. (1990). Drug Compendium. In Hansch, C (Ed.), Comprehensive Medicinal Chemistry. Pergamon Press.
// logP lookup, one value per entry
Give your answer as a number; write no unit.

Please look at this compound and report its logP: CCNC1C2CCC(C2)C1c1ccccc1 (stereo not given)
3.2

Please look at this compound and report its logP: CC(=O)O[C@H]1C[C@H](O[C@H]2[C@@H](O)C[C@H](O[C@H]3[C@@H](O)C[C@H](O[C@H]4CC[C@@]5(C)[C@H](CC[C@@H]6[C@@H]5CC[C@]5(C)[C@@H](C7=CC(=O)OC7)CC[C@]65O)C4)O[C@@H]3C)O[C@@H]2C)O[C@H](C)[C@H]1O
1.97

Please look at this compound and report its logP: CCN[C@@H](C)Cc1cccc(C(F)(F)F)c1
3.36

Please look at this compound and report its logP: NC(=O)c1csc([C@@H]2O[C@H](CO)[C@@H](O)[C@H]2O)n1
-1.73

Continuing:
Please look at this compound and report its logP: NC(=O)CCC/N=C(\c1ccc(Cl)cc1)c1cc(F)ccc1O
2.97

Data provenance is the SangsterLogP compilation.
